assay: NCI Yeast Anticancer Drug Screen. Data for the bub3 strain (AID 167); conditions: S. cerevisiae bub3 mutant strain, at 50.0 µM
Compounds without any hit were thinned out: in the full panel of roughly 79,000, 15% have a hit. The source made the active and inactive calls. Cut-off read from the data, not from the text of the source: active = growth inhibition above about 70%; inactive = the rest.
Select the correct class. Options are TRUE = active, FALSE = inactive and nothing else.

Here are 4 molecules together with their reported answers.
MOLECULE	CLASS
Cc1nnc(NS(=O)(=O)c2ccc(N=Nc3cc(N=Nc4ccc(S(=O)(=O)Nc5nnc(C)s5)cc4)c4c(NC(=O)C(Cl)Cl)cccc4c3OC(=O)C(Cl)Cl)cc2)s1 (tested in a mixture with another compound)	FALSE
CCCCCCCCCCCCN(CCO)CCO	FALSE
O=C(/C=C/c1ccccc1)c1ccc(NCc2nc3ccccc3[nH]2)cc1	TRUE
Cn1cnc([N+](=O)[O-])c1S	FALSE

Now let's try a different one.
Per the assay record, what outcome was assigned to O=C(c1ccccc1)c1[nH]c2ccccc2c(=O)c1-c1ccc([N+](=O)[O-])cc1 ? TRUE

----------
assay: NCI Yeast Anticancer Drug Screen. Data for the mec2-1 strain (AID 157); conditions: S. cerevisiae mec2-1 strain, at 50.0 µM
About 79,000 compounds went through this panel and 15% of them were active in at least one assay; those are over-represented in the sample as a whole. The source made the active and inactive calls. Rule as the data show it: active = growth inhibition above about 70%; inactive = the rest.
Select the correct class. Options are active, inactive and nothing else.

Here are 4 compounds together with their reported answers.
COMPOUND	CLASS
O=C1OC(C2OC(=O)C(=O)C2C(=O)c2ccc(Cl)cc2)C(C(=O)c2ccc(Cl)cc2)C1=O (configuration not stated)	inactive
Cc1c2ccccc2c(CO)c2cc(F)c3ccccc3c12	inactive
c1cc2ccc1C1NCCCN1CCN1CCCNC1c1ccc(cc1)C1NCCCN1CCN1CCCNC21 (configuration not stated)	inactive
O=C(O)c1ccccc1-c1c2ccc(=O)c(Br)c-2oc2c(Br)c(O)ccc12	active

Per the assay record, what outcome was assigned to COc1cc2c(c(OC)c1OC)-c1ccc(SC)c(=O)cc1[C@@H](NC(=O)Oc1ccccc1)CC2 ? inactive

Check CC/C=C\C/C=C\C/C=C\CCCCCCCC(=O)OCC(O)CO (configuration not stated) too. active

Check Oc1c(Cl)cc(CN(Cc2cc(Cl)c(O)c(Cl)c2)C2CCCCC2)cc1Cl too. active

----------
assay: NCI Yeast Anticancer Drug Screen. Data for the rad50 strain (AID 155);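 note: 0% = growth of vehicle-only cultures of the same strain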; conditions: S. cerevisiae rad50 strain growth inhibition; at 50.0 µM (retest, dose inferred, filed as 5.0)
Compounds without any hit were thinned out: in the full panel of roughly 79,000, 15% have a hit. Calls of active or inactive are those of the source. Cut-off read from the data, not from the text of the source: active = growth inhibition above about 70%; inactive = the rest.
Select the correct class. Options are Y (active), N (inactive) and nothing else.

Here are 3 molecules together with their reported answers.
MOLECULE	CLASS
Nc1ncnc2c1c(-c1ccc(Cl)cc1)cn2-c1ccccc1	N
CC(=O)Oc1ccccc1C(=O)/C=C/c1ccccc1	Y
Cn1c2c(c3ccccc31)CCN(CCN1CCN(c3cccc(Cl)c3)CC1)C2=O	N

Per the assay record, what outcome was assigned to O=C(CC(C(=O)O)c1c[nH]c2ccccc12)c1ccccc1 (centres undefined) ? N

Check CCOC(=O)Cn1c(=O)c2nc(SC)sc2n(-c2ccc(C)cc2)c1=S too. N

Check Cc1ccc(N=Nc2sc(N)nc2C)cc1C too. N

----------
experiment: NCI Yeast Anticancer Drug Screen. Data for the mec2-1 strain (AID 157); conditions: S. cerevisiae mec2-1 strain, at 5.0 µM (retest, dose inferred, filed as 0.5), active compounds read high
This is part of a sample that, as a whole, favours compounds with a hit. Of some 79,000 tested, about 15% had one in any assay.
I'd be grateful if you could share measured growth inhibition for these entries.
Give bare numbers, in %.

# example entries with known answers
COMPOUND	READOUT NAME	QUANTITATIVE RESULT
COC(=O)/C(=C\c1cn(C(C)=O)c2ccccc12)P(=O)(OC)OC	growth inhibition	5
COc1cc(NCCCCCCCC2CCCCN2)c2ncccc2c1 (stereo not drawn)	growth inhibition	6

Turning to the following compound.
Please look up its growth inhibition: CC(=O)OCc1ccc2c(c1)C(O)NC(=O)O2 (stereo not drawn) 2

----------
assay: NCI Yeast Anticancer Drug Screen. Data for the rad50 strain (AID 155);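 note: 0% = growth of vehicle-only cultures of the same strain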; conditions: S. cerevisiae rad50 strain growth inhibition; at 5.0 µM (retest, dose inferred, filed as 0.5); active compounds read high
About 79,000 compounds went through this panel and 15% of them were active in at least one assay; those are over-represented in the sample as a whole.
READOUT NAME: growth inhibition (%)
Numbers only, in %.

MOLECULE	growth inhibition [%]
Cc1ccc2c(c1)-c1cc(C)ccc1C2(O)c1ccccc1	3

Batch lookup, growth inhibition per entry.
1. N#CC1(C#N)C(C#N)(C#N)C12CCCC2
2. COc1ccc(CN2C(=O)C(Cl)=C(Cl)C2=O)c(OC)c1
3. O=[N+]([O-])c1ccc(O)c(C=Nc2ccccc2)c1
4. Cc1nc2c(Cl)nc(Cl)nc2s1
5. Cc1ccc(OC/C=C/c2ccc(Cl)cc2)cc1

[5, -1, -114, -10, -2]

Batch lookup, growth inhibition per entry.
1. COc1ccc2ccnc(Cc3ccc(OCc4ccccc4)c(OC)c3)c2c1
2. COC(=O)C1=C(C(=O)OC)C2C(C)=CC(C)=CN2C(C(=O)OC)=C1C(=O)OC (centres undefined)
3. [O-]/[N+]1=[N+](\[O-])c2ccccc2CCc2ccccc21
4. CSc1cc2c(cc1N)Cc1ccccc1-2
5. CC(=O)OC1CCC2(C)C3CCC4(C)C(CCC4(Br)C(=O)CBr)C3CC(Br)C2(Br)C1 (centres undefined)

1. 42
2. -1
3. -1
4. 3
5. -1

Batch lookup, growth inhibition per entry.
1. Oc1cc2c(cc1C(c1ccc(Cl)cc1)N1CCOCC1)OCO2 (centres undefined)
2. O=c1[nH]c(C(F)(F)F)c(F)c(=O)[nH]1

1. 1
2. 0

Batch lookup, growth inhibition per entry.
1. O=c1oc(-c2cc([N+](=O)[O-])cc([N+](=O)[O-])c2Cl)nc2ccccc12
2. CC(C)CCN1CCC2(CCCCC2)CC1
3. Cc1ccc(-c2ccccc2)n1-c1cc(Cl)ccc1O
4. CCOC(=O)C(NS(=O)(=O)c1ccccc1)(C(F)(F)F)P(=O)(OCC(C)C)OCC(C)C (centres undefined)
5. Cc1ccc(S(=O)(=O)NNC(C[N+](=O)[O-])c2ccccc2)cc1 (centres undefined)
6. O=C1c2scc(-c3ccccc3)c2-n2cccc21

[29, 4, 12, 4, 69, -6]

----------
I'd be grateful if you could share measured growth inhibition for these entries.
Assay: NCI Yeast Anticancer Drug Screen. Data for the cln2 rad14 strain (AID 165);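 note: 0% = growth equal to vehicle treated cultures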
Conditions: S. cerevisiae cln2 rad14 strain, at 50.0 µM (retest, dose inferred, filed as 5.0), active compounds read high
Protocol: Growth inhibition of yeast strains with defined genetic alterations is measured as a screen for potential anti-cancer activity. Selected strains with alterations in DNA damage repair or cell cycle control were exposed to compounds and growth inhibition was measured relative to vehicle treated controls. The strain used in this assay is cln2 rad14
The panel holds about 79,000 compounds, 15% with a hit somewhere; the sample as a whole holds those more often.
Numbers only, in %.

# example entries with known answers
COMPOUND	growth inhibition / %
COC(=O)c1ccc(CSc2ccc(OC)cc2)cc1	83
Cn1c(=O)c2c(nc(CCCCCCCc3nc4c(c(=O)n(C)c(=O)n4C)n3C)n2C)n(C)c1=O	10
CCCCCCCCCCCCNc1ccccn1	99

Batch lookup, growth inhibition per entry.
1. CC(O)(c1ccccc1)c1ccccc1S(=O)(=O)Nc1ccccc1 (stereo unspecified)
2. CCOC(=O)c1c(C)c2c(n1C)CCc1sc(N)nc1-2
3. O=C1C(Cl)=C(Cl)C(=O)C2=C1CC(Cl)C(Cl)C2 (stereo unspecified)
4. Cc1c(O)/c(=C\O)c2nc3c(=O)ccc(C(=O)NCCN(C)C)c3[nH]c2c1=O

33
26
99
94

Batch lookup, growth inhibition per entry.
1. O=[N+]([O-])c1ccc(C(Nc2ccccc2)c2ccc3cccnc3c2O)cc1 (stereo unspecified)
2. O=C(CC(O)(C(F)(F)Cl)C(F)(F)Cl)CC(O)(C(F)(F)Cl)C(F)(F)Cl
3. CCOc1c(N=Nc2ccccc2Cl)c(-c2ccccc2)nn1C(=S)S

1: 79; 2: 99; 3: 27

Batch lookup, growth inhibition per entry.
1. COc1ccc(N2C(=O)C(=O)C(C(C)=O)C2=O)cc1 (stereo unspecified)
2. C=CCOC(=O)CC(OC(C)=O)C(CC)CC(C)C (stereo unspecified)
3. COc1cc(CC(=O)O)c(Cc2ccc3c(c2)Cc2ccccc2-3)cc1OC
4. CSC(=S)NN=C(c1ccccn1)c1ccccn1

7
20
91
-19

----------
experiment: NCI Yeast Anticancer Drug Screen. Data for the mec2-1 strain (AID 157); settings: S. cerevisiae mec2-1 strain, at 50.0 µM, active compounds read high
The panel holds about 79,000 compounds, 15% with a hit somewhere; the sample as a whole holds those more often.
READOUT NAME: growth inhibition (%)
Numbers only, in %.

MOLECULE	QUANTITATIVE RESULT
O=C1c2cc([N+](=O)[O-])cc3cc([N+](=O)[O-])cc(c23)C(=O)N1CCNCCN1C(=O)c2cc([N+](=O)[O-])cc3cc([N+](=O)[O-])cc(c23)C1=O	89.2
COc1ccc(C(c2ccccc2C(=O)O)c2ccc(OC)c3ccccc23)c2ccccc12	88.8

Batch lookup, growth inhibition per entry.
1. Cc1cc(=Nc2ccc3c(c2)c(N)cc(C)[n+]3C)nc(N)n1C
2. COc1ccccc1/C=C/c1ccnc2ccccc12

1. 92.5
2. 90.2

Batch lookup, growth inhibition per entry.
1. CCCCCN(CCCCC)C(C)C(=O)c1ccc2cc(Br)c3ccccc3c2c1 (stereo unspecified)
2. COC1=C2C[C@@H](C)C[C@@H](OC)[C@@H](O)[C@H](C)/C=C(\C)[C@@H](OC(N)=O)[C@H](OC)/C=C\C=C(/C)C(=O)NC(=CC1=O)C2=O

[90.4, 89.7]
